Tested on: Proto-oncogene tyrosine-protein kinase receptor Ret (Homo sapiens), P07949 [V804L]
Sequence (P07949 whole entry V804L): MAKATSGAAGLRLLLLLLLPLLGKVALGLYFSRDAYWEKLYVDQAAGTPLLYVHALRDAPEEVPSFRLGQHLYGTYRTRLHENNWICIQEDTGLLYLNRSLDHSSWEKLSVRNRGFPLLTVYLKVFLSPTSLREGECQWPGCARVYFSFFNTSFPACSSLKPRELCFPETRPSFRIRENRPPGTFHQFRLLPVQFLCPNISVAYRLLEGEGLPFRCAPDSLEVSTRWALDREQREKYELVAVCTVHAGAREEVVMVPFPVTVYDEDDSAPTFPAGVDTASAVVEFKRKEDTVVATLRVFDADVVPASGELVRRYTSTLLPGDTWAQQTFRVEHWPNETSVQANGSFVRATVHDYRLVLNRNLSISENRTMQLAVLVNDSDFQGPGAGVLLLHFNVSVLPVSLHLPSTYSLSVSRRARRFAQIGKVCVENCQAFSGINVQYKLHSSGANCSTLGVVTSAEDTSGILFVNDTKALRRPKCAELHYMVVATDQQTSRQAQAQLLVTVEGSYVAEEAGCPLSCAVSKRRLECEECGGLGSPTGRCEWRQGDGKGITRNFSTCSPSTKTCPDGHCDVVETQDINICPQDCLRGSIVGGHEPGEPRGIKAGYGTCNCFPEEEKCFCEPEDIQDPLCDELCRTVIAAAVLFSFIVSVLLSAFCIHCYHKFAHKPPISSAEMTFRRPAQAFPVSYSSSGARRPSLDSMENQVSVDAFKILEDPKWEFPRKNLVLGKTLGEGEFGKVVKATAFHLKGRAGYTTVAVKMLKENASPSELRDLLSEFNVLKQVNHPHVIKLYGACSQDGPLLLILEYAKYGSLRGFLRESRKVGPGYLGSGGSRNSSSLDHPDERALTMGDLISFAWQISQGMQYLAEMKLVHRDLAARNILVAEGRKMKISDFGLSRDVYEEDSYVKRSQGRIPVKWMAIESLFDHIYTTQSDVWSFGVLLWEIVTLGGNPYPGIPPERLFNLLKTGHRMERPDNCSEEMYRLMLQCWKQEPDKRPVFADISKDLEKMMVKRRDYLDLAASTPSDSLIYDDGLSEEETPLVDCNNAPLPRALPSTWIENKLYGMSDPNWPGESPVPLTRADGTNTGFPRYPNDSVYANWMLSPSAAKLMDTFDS
Condition Label: at 0.1 µM

# Entry Smiles, Unit Abbrev, inhibition
measured = [
    ("O=C1NC(=O)C(c2ccccc2Cl)=C1Nc1cccc(O)c1", "%", 3.61),
    ("O=C1NC(=O)C(N2CCc3ccccc32)=C1c1ccc(Cl)cc1", "%", 7.17),
    ("CCn1c(-c2nonc2N)nc2ccncc21", "%", 4.69),
    ("CCCN1CCC(Oc2cc(Nc3nc(Nc4cccc(F)c4C(N)=O)c4cc[nH]c4n3)c(OC)cc2Cl)CC1", "%", 3.55),
    ("COc1cccc(-n2ncc3c(N/N=C/c4cccc(F)c4)ncnc32)c1", "%", 3.55),
    ("COC(=O)Nc1nc2cc(Oc3cccc(NC(=O)Nc4cc(C(F)(F)F)ccc4F)c3)ccc2[nH]1", "%", 4.35),
    ("NCc1ccc(-c2nc(-c3ccc(Cl)c(O)c3)c(-c3ccncc3)[nH]2)cc1", "%", 1.17),
    ("COc1ccccc1Nc1ncc(-c2ccccc2)o1", "%", 3.68),
    ("Nc1nc(-c2ccccn2)c(-c2ccc3ncccc3n2)s1", "%", 1.3),
]

---

# maps each entry to its inhibition
Assay Target: Tyrosine-protein kinase FRK (Homo sapiens) (UniProt P42685);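 also: reported percent inhibition is a mean value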
Sequence (P42685 whole entry): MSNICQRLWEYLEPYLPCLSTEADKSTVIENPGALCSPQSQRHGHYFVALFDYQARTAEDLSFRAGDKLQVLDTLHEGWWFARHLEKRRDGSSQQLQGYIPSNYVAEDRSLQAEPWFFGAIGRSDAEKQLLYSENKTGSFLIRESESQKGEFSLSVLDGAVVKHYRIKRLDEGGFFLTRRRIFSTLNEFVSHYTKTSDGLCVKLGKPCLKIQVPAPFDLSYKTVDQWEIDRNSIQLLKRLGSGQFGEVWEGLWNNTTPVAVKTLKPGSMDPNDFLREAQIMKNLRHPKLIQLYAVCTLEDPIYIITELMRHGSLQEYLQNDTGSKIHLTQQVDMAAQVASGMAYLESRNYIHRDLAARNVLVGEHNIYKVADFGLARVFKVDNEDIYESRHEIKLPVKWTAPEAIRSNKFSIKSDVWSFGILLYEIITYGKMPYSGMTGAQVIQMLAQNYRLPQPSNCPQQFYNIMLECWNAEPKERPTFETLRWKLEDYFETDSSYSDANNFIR
Condition Label: at 1 µM

# Entry Smiles, inhibition
records = [
    ("NC(=O)c1cccc(Nc2nccc(Nc3cccc4[nH]ncc34)n2)c1", "93.9%"),
    ("O=C1Nc2ccc(C(=O)c3ccco3)cc2C1=Cc1cc(Cl)c(O)c(Cl)c1", "7.16%"),
    ("COc1cc2ncn(-c3cc(OCc4ccccc4C(F)(F)F)c(C(N)=O)s3)c2cc1OC", "3.46%"),
    ("CC(C)=Cc1cccc2c1/C(=N/Nc1ccc(S(N)(=O)=O)cc1)C(=O)N2", "5.49%"),
    ("CN(C)c1cc2c(Nc3ccc4nc(Cc5ccccc5)[nH]c4c3)ncnc2cn1", "3.88%"),
    ("CS(=O)(=O)CCNCc1nc(-c2ccc3ncnc(Nc4ccc(F)c(Cl)c4)c3c2)cs1", "2.43%"),
    ("Cc1cccc(-c2n[nH]cc2-c2ccc3ncccc3n2)n1", "-0.81%"),
    ("COc1ccc(-c2coc3ncnc(N)c23)cc1", "2.14%"),
    ("Cc1cc(O)cc(C)c1/C=C/c1cncc(-c2nn[nH]n2)c1", "33.8%"),
    ("Cn1cc(C=C2C(=O)Nc3cccnc32)c2ccccc21", "3.75%"),
    ("O=C1NC(=O)C(c2cccc(Cl)c2)=C1Nc1ccc(O)c(Cl)c1", "1.74%"),
    ("CN1CCC(C(=O)Nc2n[nH]c3nnc(-c4ccccc4)cc23)CC1", "2.86%"),
    ("Nc1nc(-c2ccccn2)c(-c2ccc3ncccc3n2)s1", "1.57%"),
    ("CCCN1CCC(Oc2cc(Nc3nc(Nc4cccc(F)c4C(N)=O)c4cc[nH]c4n3)c(OC)cc2Cl)CC1", "0.23%"),
]

---

Entries annotated with measured inhibition
Assay Target: Fibroblast growth factor receptor 3 (Homo sapiens);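 also: each value is a mean percent inhibition of FGFR3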
Condition Label: at 0.1 µM
Quantity: inhibition (%)

# Compound, Unit Abbrev, Recorded Result
data = [
    ("CS(=O)(=O)CCNCc1ccc(-c2ccc3ncnc(Nc4ccc(OCc5ccccc5)c(Cl)c4)c3c2)o1", "%", 2.05),
    ("COc1cc2ncn(-c3cc(OCc4ccccc4Cl)c(C(N)=O)s3)c2cc1OC", "%", 4.37),
    ("Cc1cc(O)cc(C)c1/C=C/c1cncc(-c2nn[nH]n2)c1", "%", 3.74),
    ("CC1=C(C(=O)Nc2ccc3[nH]ncc3c2)C(c2ccc3ccccc3c2)CC(=O)N1 (stereo not given)", "%", 9.54),
    ("c1cnn2ncc(-c3ccnc(Nc4ccc5c(c4)OCCO5)n3)c2c1", "%", 6.39),
    ("CC1=C(C(=O)Nc2ccc3[nH]ncc3c2)C(c2ccc(F)cc2)NC(=O)N1 (stereo not given)", "%", 4.3),
    ("Fc1cccc(COc2ccc(Nc3ncnc4cc(-c5ccc[nH]5)sc34)cc2Cl)c1", "%", -1),
    ("Nc1ncnc2occ(-c3ccc(NC(=O)Nc4cc(C(F)(F)F)cc(C(F)(F)F)c4)cc3)c12", "%", 10.8),
    ("CCn1c(-c2nonc2N)nc2cncc(C(=O)N3CC[C@H](N)C3)c21", "%", 3.72),
    ("CCn1c(-c2nonc2N)nc2c(N3CCCC3)nccc21", "%", 0.34),
    ("CCn1c(-c2nonc2N)nc2ccncc21", "%", 0.49),
    ("CS(=O)(=O)Nc1ccc(N/C=C2\\C(=O)Nc3ccccc32)cc1", "%", 1.57),
    ("COC(=O)Nc1nc2cc(Oc3ccc(NC(=O)Nc4cccc(C(=O)O)c4)cc3)ccc2[nH]1", "%", -1.47),
    ("O=C1Nc2ccc(C(=O)c3ccco3)cc2C1=Cc1cc(Cl)c(O)c(Cl)c1", "%", 9.26),
    ("COc1cc2c(cc1Nc1nc(N3CCc4ccccc43)c3cc[nH]c3n1)N(C(=O)CN(C)C)CC2", "%", 3.52),
    ("CS(=O)(=O)CCNCc1nc(-c2ccc3ncnc(Nc4ccc(F)c(Cl)c4)c3c2)cs1", "%", 2.17),
    ("Cc1nn(C)c2cc(N(C)c3ccnc(Nc4cccc(S(N)(=O)=O)c4)n3)ccc12", "%", 3.96),
    ("CCCN1CCC=C(c2ccc(Nc3nc(Nc4ccccc4C(N)=O)c4cc[nH]c4n3)c(C)c2)C1", "%", 6.92),
    ("O=C1NC(=O)C(N2CCc3ccccc32)=C1c1ccc(Cl)cc1", "%", 8.07),
    ("CN(C)c1cc2c(Nc3ccc4nc(Cc5ccccc5)[nH]c4c3)ncnc2cn1", "%", 7.84),
    ("O=C1NC(=O)C(c2ccccc2Cl)=C1Nc1cccc(O)c1", "%", 2.9),
    ("CCn1c(-c2nonc2N)nc2cnc(Oc3cccc(NC(=O)c4ccc(OCCN5CCOCC5)cc4)c3)cc21", "%", 3.36),
    ("CC1=C(C(=O)Nc2ccc3[nH]ncc3c2)C(c2ccc(Cl)c(Cl)c2)CC(=O)N1 (stereo not given)", "%", 2.17),
    ("COC(=O)Nc1nc2cc(Oc3cccc(NC(=O)Nc4cc(C(F)(F)F)ccc4F)c3)ccc2[nH]1", "%", 0.57),
    ("Cc1ccc(NC(=O)c2ccnc(N3CCCC3)c2)cc1-c1ccc(C(=O)NCC2CC2)cc1", "%", 6.97),
]

---

Assay Target: Mitogen-activated protein kinase 9 (Homo sapiens);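 also: reported figure is the mean inhibition of JNK2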
Condition Label: at 1 µM
Item-by-item account of inhibition
Quantity: inhibition (%)

# Entry Smiles, Recorded Result
data = [
    ("CS(=O)(=O)CCNCc1nc(-c2ccc3ncnc(Nc4ccc(F)c(Cl)c4)c3c2)cs1", 4.55),
    ("NC(=O)c1ccc(-c2nc(-c3ccccn3)c(-c3ccc4c(c3)OCO4)[nH]2)cc1", 5.34),
    ("CCN1CCC(CC(=O)Nc2n[nH]c3nc(-c4cccs4)c(Br)cc23)CC1", -3.11),
]

---

inhibition values for the compounds below.
Assay Target: Testis-specific serine/threonine-protein kinase 2 (Homo sapiens) (UniProt Q96PF2);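 also: values are mean inhibition of TSSK2 activity from the GSK PKIS profiling panel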
Sequence (Q96PF2 whole entry): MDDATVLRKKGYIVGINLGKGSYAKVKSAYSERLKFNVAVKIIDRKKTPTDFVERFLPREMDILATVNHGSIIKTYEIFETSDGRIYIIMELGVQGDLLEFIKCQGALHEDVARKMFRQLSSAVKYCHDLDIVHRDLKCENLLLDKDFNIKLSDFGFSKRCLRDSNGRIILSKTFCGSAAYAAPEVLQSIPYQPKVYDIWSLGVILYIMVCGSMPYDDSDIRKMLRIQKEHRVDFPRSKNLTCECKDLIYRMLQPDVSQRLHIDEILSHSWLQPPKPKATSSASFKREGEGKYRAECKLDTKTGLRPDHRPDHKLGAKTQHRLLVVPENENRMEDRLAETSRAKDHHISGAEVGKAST
Condition Label: at 0.1 µM
Quantity: inhibition (%)

# Compound, Quantity, Recorded Result
rows = [
    ("CC1=C(C(=O)Nc2ccc3[nH]ncc3c2)C(c2ccc(F)cc2)NC(=O)N1 (stereo unspecified)", "inhibition", 1.2),
    ("CS(=O)(=O)CCN(CC#N)Cc1ccc(-c2ccc3ncnc(Nc4ccc(OCc5cccc(F)c5)c(Cl)c4)c3c2)o1", "inhibition", 0.63),
    ("CCn1c(-c2nonc2N)nc2cnc(Oc3cccc(NC(=O)c4ccc(OCCN5CCOCC5)cc4)c3)cc21", "inhibition", 2.29),
    ("Nc1ncnc2occ(-c3ccc(NC(=O)Nc4cccc(C(F)(F)F)c4)cc3)c12", "inhibition", 1.47),
    ("O=C1NC(=O)C(c2ccccc2Cl)=C1Nc1cccc(O)c1", "inhibition", 1.05),
    ("CS(=O)(=O)CCNCc1nc(-c2ccc3ncnc(Nc4ccc(F)c(Cl)c4)c3c2)cs1", "inhibition", 0.45),
    ("CC1=C(C(=O)Nc2ccc3[nH]ncc3c2)C(c2ccc(Cl)c(Cl)c2)CC(=O)N1 (stereo unspecified)", "inhibition", 1.93),
    ("[O-][S+]1CCN(Cc2ccc(-c3ccc4ncnc(Nc5ccc(OCc6ccccc6)c(F)c5)c4c3)o2)CC1", "inhibition", 0.63),
    ("CCn1c(-c2nonc2N)nc2c(N3CCCC3)nccc21", "inhibition", -0.87),
    ("Cn1cc(C=C2C(=O)Nc3cccnc32)c2ccccc21", "inhibition", -0.65),
    ("COC(=O)Nc1nc2cc(Oc3ccc(NC(=O)Nc4cccc(C(=O)O)c4)cc3)ccc2[nH]1", "inhibition", 0.4),
]
